# TEST SUMMARY: recombinant barcode read abundance after kanamycin selection (control-corrected) (log10(CPM+1)); higher = more efficient recombination; sequences stand for … in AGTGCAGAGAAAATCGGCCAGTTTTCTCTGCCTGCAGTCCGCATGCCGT…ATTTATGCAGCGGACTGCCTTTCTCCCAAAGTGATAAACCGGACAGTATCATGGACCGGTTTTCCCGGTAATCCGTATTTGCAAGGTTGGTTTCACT; site = the 11-nt target
Below, each of the sequences is paired with its reported recombinant barcode read abundance (log10) value.
ASSAY METRIC: recombinant barcode read abundance (log10)

1) GGTGCCCTGTGGGTTCTAACCTGTTGCCGCA [GGTGCCCCTCG_LTGcore_TG_RTGcore_TG] (site GGTGCCCCTCG) (LTG core: TG, RTG core: TG) | 0.15
2) GAGTCCTTTTGGGTTCTAACCTGTTGCCTAG [GAGTCCTCTAG_LTGcore_TT_RTGcore_CT] (site GAGTCCTCTAG) (LTG core: TT, RTG core: CT) | 0.153
3) TAAGAATTCTGGGTTCTAACCTGTTGCCTAG [TAAGAATCTAG_LTGcore_TC_RTGcore_CT] (site TAAGAATCTAG) (LTG core: TC, RTG core: CT) | 0.0977
4) CATATTAAATGGGTTCTAACCTGTTGCCTAG [CATATTACTAG_LTGcore_AA_RTGcore_CT] (site CATATTACTAG) (LTG core: AA, RTG core: CT) | 0.0356
5) GGGCGGATGTGGGTTCTAACCTGTTGCGGAG [GGGCGGACTCC_LTGcore_TG_RTGcore_CT] (site GGGCGGACTCC) (LTG core: TG, RTG core: CT) | 0.251
6) AGGCGGGCGTGGGTTCTAACCTGTTGCGGCG [AGGCGGGCTCC_LTGcore_CG_RTGcore_CG] (site AGGCGGGCTCC) (LTG core: CG, RTG core: CG) | 0.0653
7) AGTCTTAGTTGGGTTCTAACCTGTTGCCAAG [AGTCTTACTTG_LTGcore_GT_RTGcore_CT] (site AGTCTTACTTG) (LTG core: GT, RTG core: CT) | 0.0538
8) ACGGGACGATGGGTTCTAACCTGTTGCAGTC [ACGGGACCTCT_LTGcore_GA_RTGcore_GA] (site ACGGGACCTCT) (LTG core: GA, RTG core: GA) | 0.229
9) AGGCGGTCTTGGGTTCTAACCTGTTGCTTTA [AGGCGGTCTAA_LTGcore_CT_RTGcore_TA] (site AGGCGGTCTAA) (LTG core: CT, RTG core: TA) | 0.353
10) TCTACCCCTTGGGTTCTAACCTGTTGCTGGC [TCTACCCCTCA_LTGcore_CT_RTGcore_GC] (site TCTACCCCTCA) (LTG core: CT, RTG core: GC) | 0.129
11) CGGTCCCCTTGGGTTCTAACCTGTTGCCAGA [CGGTCCCCTTG_LTGcore_CT_RTGcore_TC] (site CGGTCCCCTTG) (LTG core: CT, RTG core: TC) | 0.0215
12) GAGCCCACTTGGGTTCTAACCTGTTGCCTAG [GAGCCCACTAG_LTGcore_CT_RTGcore_CT] (site GAGCCCACTAG) (LTG core: CT, RTG core: CT) | 1.45
13) TTATAAAGATGGGTTCTAACCTGTTGCCTTC [TTATAAACTAG_LTGcore_GA_RTGcore_GA] (site TTATAAACTAG) (LTG core: GA, RTG core: GA) | 0.0936
14) CGAGCCCCTTGGGTTCTAACCTGTTGCTGCC [CGAGCCCCTCA_LTGcore_CT_RTGcore_GG] (site CGAGCCCCTCA) (LTG core: CT, RTG core: GG) | 0.235
15) GAGCCCAGGTGGGTTCTAACCTGTTGCCTCC [GAGCCCACTAG_LTGcore_GG_RTGcore_GG] (site GAGCCCACTAG) (LTG core: GG, RTG core: GG) | 0.596
16) CGCGCCCAATGGGTTCTAACCTGTTGCGGAG [CGCGCCCCTCC_LTGcore_AA_RTGcore_CT] (site CGCGCCCCTCC) (LTG core: AA, RTG core: CT) | 0.173
17) GAGGCCTACTGGGTTCTAACCTGTTGCCAAG [GAGGCCTCTTG_LTGcore_AC_RTGcore_CT] (site GAGGCCTCTTG) (LTG core: AC, RTG core: CT) | 0.0351
18) AGTCTTATCTGGGTTCTAACCTGTTGCCAAG [AGTCTTACTTG_LTGcore_TC_RTGcore_CT] (site AGTCTTACTTG) (LTG core: TC, RTG core: CT) | 0.0237
19) TAGAGGGACTGGGTTCTAACCTGTTGCGGAG [TAGAGGGCTCC_LTGcore_AC_RTGcore_CT] (site TAGAGGGCTCC) (LTG core: AC, RTG core: CT) | 0.265
20) AGGCGGTCCTGGGTTCTAACCTGTTGCTTAG [AGGCGGTCTAA_LTGcore_CC_RTGcore_CT] (site AGGCGGTCTAA) (LTG core: CC, RTG core: CT) | 0.341
21) GAGTCCTTTTGGGTTCTAACCTGTTGCCTAA [GAGTCCTCTAG_LTGcore_TT_RTGcore_TT] (site GAGTCCTCTAG) (LTG core: TT, RTG core: TT) | 0.219

---

Below, each of the sequences is paired with its reported recombinant barcode read abundance (log10) value.
# TEST SUMMARY: recombinant barcode read abundance after kanamycin selection (control-corrected) (log10(CPM+1)); higher = more efficient recombination; sequences stand for … in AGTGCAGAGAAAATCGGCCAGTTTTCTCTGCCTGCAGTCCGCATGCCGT…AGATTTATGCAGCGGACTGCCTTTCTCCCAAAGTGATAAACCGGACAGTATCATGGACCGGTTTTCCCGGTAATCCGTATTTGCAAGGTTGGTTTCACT; site = the 11-nt target
ASSAY METRIC: recombinant barcode read abundance (log10)

1. ACCTGCCCTTGGGTTCTAACCTGTTGCCT (site ACCTGACCTAG) | 0.154
2. GGCAGACCTTGGGTTCTAACCTGTTGCCT (site GGCAGACCTAG) | 1
3. CAGGACTCTTGGGTTCTAACCTGTTGCTT (site CAGGACTCTAA) | 2.85
4. TCCCGATCTTGGGTTCTAACCTGTTGCCT (site TCCCGAACTAG) | 0.0997
5. CATAGTCCTTGGGTTCTAACCTGTTGCAT (site CATAGTCCTAT) | 0.923
6. TTAGAGGCTTGGGTTCTAACCTGTTGCCT (site TTAGAGACTAG) | 0.363
7. ATAGGACCTTGGGTTCTAACCTGTTGCAG (site ATAGGACCTCT) | 2.75
8. CACAACACTTGGGTTCTAACCTGTTGCCT (site CACATCACTAG) | 0.0296
9. GCAGGTCCTTGGGTTCTAACCTGTTGCCT (site GCTGGTCCTAG) | 0.397
10. CCGCTATCTTGGGTTCTAACCTGTTGCCT (site CCGGTATCTAG) | 0.104
11. ATCGCCTCTTGGGTTCTAACCTGTTGCCT (site ATCCCCTCTAG) | 0.328
12. TCAGAAGCTTGGGTTCTAACCTGTTGCCG (site ATGAGGCCTTA) | 0.022
13. AGCAGAGCTTGGGTTCTAACCTGTTGCGG (site AGCAGAGCTCG) | 0.0598
14. GGGTCGGCTTGGGTTCTAACCTGTTGCGA (site GGGTCGGCTAC) | 0.231
15. CTACAGACTTGGGTTCTAACCTGTTGCGA (site CTACAGACTCC) | 1.04
16. CATTAACCTTGGGTTCTAACCTGTTGCCT (site TACTAACCTAG) | 0.208
17. GATGTAACTTGGGTTCTAACCTGTTGCCT (site GAAGTAACTAG) | 0.191
18. GTTTGTTCTTGGGTTCTAACCTGTTGCCT (site GTTTGCTCTAG) | 0.0623
19. ACACCACCTTGGGTTCTAACCTGTTGCCT (site ACACCACCTAG) | 0.0741
20. CCGATATCTTGGGTTCTAACCTGTTGCCT (site CCGGTATCTAG) | 1.97
21. CACTGTTCTTGGGTTCTAACCTGTTGCCT (site CACTGTTCTAG) | 0.737
22. CGAGCTCCTTGGGTTCTAACCTGTTGCGT (site CGAGCTCCTAC) | 2.04
23. GGACCTCCTTGGGTTCTAACCTGTTGCGT (site GGACCTCCTAG) | 0.272
24. CACATGGCTTGGGTTCTAACCTGTTGCCG (site CACATGGCTCG) | 0.259
25. ACGAATCCTTGGGTTCTAACCTGTTGCTT (site ACGAATCCTAA) | 0.423
26. ATACCTCCTTGGGTTCTAACCTGTTGCCT (site CTAACTCCTAG) | 0.148
27. TGGAGCCCTTGGGTTCTAACCTGTTGCAA (site TGGAGCCCTTT) | 0.155
28. CCACTGCCTTGGGTTCTAACCTGTTGCCT (site CCACTGCCTAG) | 0.862
29. CACTTCCCTTGGGTTCTAACCTGTTGCGT (site CACTTCCCTAC) | 2.4
30. TATATATCTTGGGTTCTAACCTGTTGCAT (site TATATATCTAT) | 0.23
31. CTCTAGACTTGGGTTCTAACCTGTTGCTG (site CTCAAGACTCC) | 0.0495
32. GTAGTATCTTGGGTTCTAACCTGTTGCCT (site GTAGTATCTAG) | 1.96
33. TAGGGTCCTTGGGTTCTAACCTGTTGCGG (site TAGGGTCCTCC) | 2.88
34. GTCGGGACTTGGGTTCTAACCTGTTGCCT (site GTCGGGACTAG) | 1.51
35. TATAAGACTTGGGTTCTAACCTGTTGCAC (site TAGAAGACTAT) | 0.587
36. TGCCTAGCTTGGGTTCTAACCTGTTGCCT (site TGTCTAGCTAG) | 0.0825
37. CGGCTCCCTTGGGTTCTAACCTGTTGCTT (site CGGCTCCCTAA) | 1.24
38. TGCTCCTCTTGGGTTCTAACCTGTTGCCT (site GGCTCCTCTAG) | 0.109
39. GTCAAACCTTGGGTTCTAACCTGTTGCTG (site GTCAACCCTCA) | 0.232
40. GGGTCCTCTTGGGTTCTAACCTGTTGCCA (site GGGTCCTCTCG) | 0.29
41. TTCAGTCCTTGGGTTCTAACCTGTTGCAT (site TTCAGTCCTAT) | 0.509
42. CCACCGCCTTGGGTTCTAACCTGTTGCCT (site GCACCGCCTAG) | 0.211
